All values here come from patent US11279703B2.

Quick list: IC50 per entry.
molecular target: JAK2 (Homo sapiens (Human), UniProt O60674); experiment: HTRF kinase assay, JAK2; type: biochemical; conditions: Table 6
Sequence (O60674 whole entry): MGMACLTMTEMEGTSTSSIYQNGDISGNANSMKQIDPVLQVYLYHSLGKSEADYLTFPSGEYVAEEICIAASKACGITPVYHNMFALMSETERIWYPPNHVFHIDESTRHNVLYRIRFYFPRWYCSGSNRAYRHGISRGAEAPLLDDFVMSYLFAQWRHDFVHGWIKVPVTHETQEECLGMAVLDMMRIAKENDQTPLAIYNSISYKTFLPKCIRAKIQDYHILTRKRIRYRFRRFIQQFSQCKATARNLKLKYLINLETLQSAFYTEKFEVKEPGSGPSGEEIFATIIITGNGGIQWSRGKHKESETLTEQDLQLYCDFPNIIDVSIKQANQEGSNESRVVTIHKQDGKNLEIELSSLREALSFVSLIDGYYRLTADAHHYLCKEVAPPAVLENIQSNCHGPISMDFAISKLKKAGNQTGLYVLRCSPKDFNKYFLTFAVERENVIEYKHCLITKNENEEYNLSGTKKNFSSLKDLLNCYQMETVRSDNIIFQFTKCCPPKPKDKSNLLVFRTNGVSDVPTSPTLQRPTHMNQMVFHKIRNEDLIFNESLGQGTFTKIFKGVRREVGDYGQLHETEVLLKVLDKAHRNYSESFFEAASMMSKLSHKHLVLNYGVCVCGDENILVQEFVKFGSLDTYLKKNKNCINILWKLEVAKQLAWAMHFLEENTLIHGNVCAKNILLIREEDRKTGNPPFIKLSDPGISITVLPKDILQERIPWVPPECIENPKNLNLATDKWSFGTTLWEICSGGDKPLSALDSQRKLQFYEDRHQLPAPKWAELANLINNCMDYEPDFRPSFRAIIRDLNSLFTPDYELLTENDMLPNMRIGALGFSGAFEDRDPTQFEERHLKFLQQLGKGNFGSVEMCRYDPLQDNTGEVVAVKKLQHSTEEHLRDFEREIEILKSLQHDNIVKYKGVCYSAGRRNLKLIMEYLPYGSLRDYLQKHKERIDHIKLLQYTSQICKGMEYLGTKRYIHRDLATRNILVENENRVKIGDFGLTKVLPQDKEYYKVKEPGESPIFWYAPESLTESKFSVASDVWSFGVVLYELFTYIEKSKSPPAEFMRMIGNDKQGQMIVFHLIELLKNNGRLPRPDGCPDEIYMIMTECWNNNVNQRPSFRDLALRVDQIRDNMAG

{"molecule": "CN1CCN(c2ccc(Nc3ncc4ccn(-c5cccc(NS(=O)(=O)C(C)(C)C)c5)c4n3)cc2F)CC1", "IC50": "18 nM"}
{"molecule": "CN1CCN(c2ccc(Nc3nc(Nc4cccc(NS(=O)(=O)C(C)(C)C)c4)c4cc[nH]c4n3)cc2)CC1", "IC50": "32 nM"}
{"molecule": "CN(C)C1CCN(c2ccc(Nc3ncc4ccn(-c5ccc(F)c(NS(=O)(=O)C(C)(C)C)c5)c4n3)cc2F)CC1 [drawing 373]", "IC50": "27 nM"}
{"molecule": "CC(C)(C)S(=O)(=O)Nc1cccc(-n2ccc3cnc(NC4CCNCC4)nc32)c1", "IC50": "10000 nM"}

###

pIC50 values for the compounds below.
target: BRD4-BD1 (Homo sapiens (Human)); experiment: AlphaLisa bromodomain binding assay, BRD4-BD1; settings: Table 6; read-out: BRD4(1) IC50
pIC50: −log10 of the molar value.

{"compound": "CC(C)(C)S(=O)(=O)Nc1cccc(Nc2nc(NC3CCN(C(N)=O)CC3)nc3sccc23)c1", "pIC50": 5.52}
{"compound": "CN1CCN2c3ccc(Nc4ncc5ccn(-c6ccc(F)c(NS(=O)(=O)C(C)(C)C)c6)c5n4)cc3CC2C1 (centres unmarked)", "pIC50": 6.49}
{"compound": "CNCCCOc1ccc(Nc2ncc3ccn(-c4cccc(NS(=O)(=O)C(C)(C)C)c4)c3n2)cc1F [drawing 448]", "pIC50": 6.47}
{"compound": "CN1CCC(Nc2nc(Nc3cccc(NS(=O)(=O)C(C)(C)C)c3)c3cc[nH]c3n2)CC1", "pIC50": 5.15}
{"compound": "Cc1noc(C)c1-c1cccc(-c2c[nH]c3nc(N4CCN(C)CC4)ncc23)c1", "pIC50": 5.14}
{"compound": "COc1cc(Nc2ncc3ccn(-c4cccc(NS(=O)(=O)C(C)(C)C)c4)c3n2)ccc1N1CCNCC1", "pIC50": 6.40}
{"compound": "CN1CCN(c2ccc(Nc3ncc4ccn(-c5cccc(N(C)S(=O)(=O)C(C)(C)C)c5)c4n3)cc2)CC1", "pIC50": 5.96}
{"compound": "COc1nc(NC2CCNCC2)nc2c1ccn2-c1cccc(NS(=O)(=O)C(C)(C)C)c1", "pIC50": 6.91}
{"compound": "CNC1CCN(c2ccc(Nc3ncc4scc(-c5cccc(NS(=O)(=O)C(C)(C)C)c5)c4n3)cc2F)CC1", "pIC50": 6.37}
{"compound": "CN1CCC(Nc2nc(-n3ccc(C(=O)NC4CC4)c3)c3ccsc3n2)CC1 [drawing 230]", "pIC50": 5.66}
{"compound": "CNCCCOc1ccc(Nc2ncc3ccn(-c4cccc(NS(=O)(=O)C(C)(C)C)c4)c3n2)cc1F [drawing 466]", "pIC50": 6.70}
{"compound": "CC(C)(C)S(=O)(=O)N1CCc2ccc(-n3ccc4cnc(Nc5ccc(N6CCNCC6)cc5)nc43)cc21", "pIC50": 5.71}
{"compound": "CN1CCN(c2ccc(Nc3ncc4ccn(-c5cccc(NS(=O)(=O)C(C)(C)C)c5)c4n3)cc2F)CC1", "pIC50": 6.36}
{"compound": "CC(C)(C)S(=O)(=O)Nc1cccc(-n2ccc3cnc(Nc4ccc(N5CCNCC5)cc4)nc32)c1 [drawing 283]", "pIC50": 6.82}
{"compound": "CN1CCCc2cc(Nc3ncc4ccn(-c5cccc(NS(=O)(=O)C(C)(C)C)c5)c4n3)ccc21", "pIC50": 6.10}
{"compound": "CN1CCC(NC(=O)c2ccc(Nc3ncc4ccn(-c5ccc(F)c(NS(=O)(=O)C6CC6)c5)c4n3)cc2F)CC1", "pIC50": 6.11}
{"compound": "CNCCNC(=O)Cc1ccc(Nc2ncc3ccn(-c4ccc(F)c(NS(=O)(=O)C(C)(C)C)c4)c3n2)cc1F", "pIC50": 6.85}

###

Target: JAK2 (Homo sapiens (Human), UniProt O60674)
Assay: HTRF kinase assay, JAK2
Format: biochemical
Details: Table 4
Source text: A kinase assay with HTRF was used to observe JAK activity and calculate the IC50s of compounds disclosed herein. HTRF is an enzymatic assay used to determine the amount of phosphorylated peptide. FRET (Fluorescence Resonance Energy Transfer) is based on the transfer of energy between two fluorophores—a donor and an acceptor—when in close proximity. […] Equipment Required • 1. […] Microplate reader (Pherastar)] […]
Measured IC50 accompanies every entry in the list below.

{"compound": "CN1CCN(c2ccc(Nc3ncc4ccn(-c5ccc(NS(=O)(=O)C(C)(C)C)cc5)c4n3)cc2)CC1 [drawing 69]", "IC50, pM": 700}
{"compound": "CN1CCN(c2ccc(Nc3ncc4ccn(-c5ccc6c(c5)CCN6S(=O)(=O)C(C)(C)C)c4n3)cc2)CC1 [drawing 71]", "IC50, pM": 600}
{"compound": "CN1CCN(c2ccc(Nc3ncc4ccn(-c5ccc(CNS(=O)(=O)C(C)(C)C)cc5)c4n3)cc2)CC1 [drawing 70]", "IC50, pM": 180}

###

target: BRD4-BD1 (Homo sapiens (Human)); test: AlphaLisa bromodomain binding assay, BRD4-BD1; details: Table 6; read-out: BRD4(1) IC50
pIC50: −log10 of the molar value.

{"mol": "CC(C)S(=O)(=O)N1CCN(c2ccc(Nc3ncc4ccn(-c5cccc(NS(=O)(=O)C(C)(C)C)c5)c4n3)cc2)CC1", "pIC50": 5.08}
{"mol": "CN1CCC(NC(=O)c2ccc(Nc3ncc4ccn(-c5cccc(NS(=O)(=O)C(C)(C)C)c5)c4n3)cc2F)CC1", "pIC50": 6.62}
{"mol": "COc1cc(Nc2ncc3scc(-c4cccc(NS(=O)(=O)C(C)(C)C)c4)c3n2)ccc1N1CCNCC1", "pIC50": 6.45}
{"mol": "CN1CCN(c2ccc(Nc3nc(Nc4ccc5c(c4)N(S(=O)(=O)C(C)(C)C)CC5)c4ccsc4n3)cc2)CC1", "pIC50": 5.34}

###

Molecular target: BRD4-BD1 (Homo sapiens (Human), UniProt O60885)
Assay: AlphaLisa bromodomain binding assay, BRD4-BD1
Conditions: Table 1; read-out: BRD4 IC50
Experimental: An AlphaLisa assay was used to observe bromodomain binding and measure IC50s for the compounds disclosed herein. An AlphaLisa assay is a bead-based assay used to detect interactions between bromodomains and polyacetylated histone peptides. […] Equipment Required • 1. […] Microplate reader (Pherastar) […] The percent inhibition is calculated in the excel analysis template and the IC50 values are subsequently determined using a sigmoidal dose-response curve (variable slope) using GraphPad Prism® 5 software.
The compounds listed here are annotated with their IC50.

{"compound": "CC(C)(C)S(=O)(=O)Nc1cc(-n2ccc3cnc(Nc4ccc(N5CCNCC5)c(F)c4)nc32)ccc1F [drawing 50]", "units_of_measure": "nM", "IC50": 6}
{"compound": "CN(C)C1CCN(c2ccc(Nc3ncc4ccn(-c5ccc(F)c(NS(=O)(=O)C(C)(C)C)c5)c4n3)cc2F)CC1 [drawing 48]", "units_of_measure": "nM", "IC50": 63}
{"compound": "CC(C)(C)S(=O)(=O)Nc1cccc(Nc2nc(NC3CCNCC3)nc3sccc23)c1 [drawing 49]", "units_of_measure": "nM", "IC50": 94}
{"compound": "CN1CCC(NC(=O)c2ccc(Nc3ncc4ccn(-c5ccc(F)c(NS(=O)(=O)C(C)(C)C)c5)c4n3)cc2F)CC1 [drawing 47]", "units_of_measure": "nM", "IC50": 94}

###

target: BRD4-BD1 (Homo sapiens (Human), UniProt O60885); experiment: AlphaLisa bromodomain binding assay, BRD4-BD1; settings: Table 6; read-out: BRD4(1) IC50
In plain terms, low IC50, meaning strictly below 700 nM, gives yes (1), and everything else gives no (0).

{"molecule": "CNC1CCN(c2ccc(Nc3ncc4ccn(-c5ccc(F)c(NS(=O)(=O)C(C)(C)C)c5)c4n3)cc2F)CC1 [drawing 456]", "target_or_test_system": "BRD4-BD1 (Homo sapiens (Human), UniProt O60885)", "assigned_category": "yes (1)"}
{"molecule": "Cc1cnc(Nc2ccc(N3CCN(C)CC3)cc2)nc1Nc1cccc(NS(=O)(=O)C(C)(C)C)c1 [drawing 405]", "target_or_test_system": "BRD4-BD1 (Homo sapiens (Human), UniProt O60885)", "assigned_category": "yes (1)"}
{"molecule": "Cc1ccc(-n2ccc3cnc(Nc4ccc(N5CCNCC5)cc4)nc32)cc1NS(=O)(=O)C1CC1", "target_or_test_system": "BRD4-BD1 (Homo sapiens (Human), UniProt O60885)", "assigned_category": "no (0)"}
{"molecule": "O=S(=O)(Nc1cc(-n2ccc3cnc(Nc4ccc(N5CCNCC5)cc4)nc32)ccc1F)C1CC1", "target_or_test_system": "BRD4-BD1 (Homo sapiens (Human), UniProt O60885)", "assigned_category": "no (0)"}
{"molecule": "COc1cc(Nc2ncc3ccn(-c4ccc(F)c(NS(=O)(=O)C5CC5)c4)c3n2)ccc1N1CCN(C)CC1", "target_or_test_system": "BRD4-BD1 (Homo sapiens (Human), UniProt O60885)", "assigned_category": "no (0)"}
{"molecule": "CN1CCN(C(=O)Cc2ccc(Nc3ncc4ccn(-c5cccc(NS(=O)(=O)C(C)(C)C)c5)c4n3)cc2)CC1", "target_or_test_system": "BRD4-BD1 (Homo sapiens (Human), UniProt O60885)", "assigned_category": "no (0)"}
